- Method summary: Evaluated for ionization constant (pKa5) by titrations performed in absence of cosolvent and at a dielectric constant of 78
- Assay type: physicochemical
- Setup conditions: no cosolvent; read-out: pKa5
Property label: pKa

smiles_string=CCOC(=O)CN(CCN(CC(=O)[O-])Cc1ccccc1O)Cc1ccccc1O.[Na+] reported_measurement=0.9

---

- Method summary: Evaluated for ionization constant (pKa2) by titrations performed in the absence of cosolvent and at a dielectric constant of 78
- Format: physicochemical
- Setup conditions: no cosolvent, dielectric constant 78; read-out: pKa2
Property label: pKa

smiles_string=O=C(O)CN(CCN(CC(=O)O)Cc1ccccc1O)Cc1ccccc1O reported_measurement=11.1

---

- Method summary: Evaluated for ionization constant (pKa5) by titrations performed in the presence of MeOH at a dielectric constant of 62
- Assay type: physicochemical
- Setup conditions: MeOH cosolvent; read-out: pKa5
Property label: pKa

smiles_string=O=C(O)CN(CCN(CC(=O)O)Cc1ccccc1O)Cc1ccccc1O property_label=pKa reported_measurement=2.25

---

- Method summary: Evaluated for ionization constant (pKa1) by titrations performed using method of Yasuda and Shedlovsky
- Assay type: physicochemical
- Setup conditions: read-out: pKa1
Property label: pKa

smiles_string=CCOC(=O)CN(CCN(CC(=O)OCC)Cc1ccccc1O)Cc1ccccc1O reported_measurement=12.2
smiles_string=COC(=O)CN(CCN(CC(=O)OC)Cc1ccccc1O)Cc1ccccc1O reported_measurement=12.2

---

- Method summary: Evaluated for ionization constant (pKa4) by titrations performed in presence of a MeOH and at a dielectric constant of 56
- Format: physicochemical
- Setup conditions: MeOH cosolvent; read-out: pKa4
Property label: pKa

smiles_string=COC(=O)CN(CCN(CC(=O)OC)Cc1ccccc1O)Cc1ccccc1O reported_measurement=0.82

---

- Method summary: Evaluated for ionization constant (pKa2) by titrations performed in presence of MeOH solvent at a dielectric constant of 49
- Type: physicochemical
- Setup conditions: MeOH cosolvent, dielectric constant 49; read-out: pKa2
Property label: pKa

smiles_string=COC(=O)CN(CCN(CC(=O)[O-])Cc1ccccc1O)Cc1ccccc1O.[Na+] property_label=pKa reported_measurement=12.2

---

- Method summary: Evaluated for ionization constant (pKa2) by titrations performed in the presence of EtOH and at a dielectric constant of 57
- Format: physicochemical
- Setup conditions: EtOH cosolvent, dielectric constant 57; read-out: pKa2
Property label: pKa

smiles_string=CCOC(=O)CN(CCN(CC(=O)OCC)Cc1ccccc1O)Cc1ccccc1O property_label=pKa reported_measurement=11.6

---

- Method summary: Evaluated for ionization constant (pKa4) by titrations performed in the presence of EtOH and at a dielectric constant of 63
- Type: physicochemical
- Setup conditions: EtOH cosolvent; read-out: pKa4
Property label: pKa

smiles_string=CCOC(=O)CN(CCN(CC(=O)OCC)Cc1ccccc1O)Cc1ccccc1O property_label=pKa reported_measurement=1.42

---

- Method summary: Evaluated for ionization constant (pKa2) by titrations performed in presence of MeOH solvent at a dielectric constant of 56
- Type: physicochemical
- Setup conditions: MeOH cosolvent, dielectric constant 56; read-out: pKa2
Property label: pKa

smiles_string=COC(=O)CN(CCN(CC(=O)[O-])Cc1ccccc1O)Cc1ccccc1O.[Na+] property_label=pKa reported_measurement=12.1

---

- Method summary: Evaluated for ionization constant-1 (pKa1) by titrations performed in absence of a cosolvent at a dielectric constant of 78
- Type: physicochemical
- Setup conditions: no cosolvent, dielectric constant 78; read-out: pKa1
Property label: pKa

smiles_string=O=C(O)CN(CCN(CC(=O)O)Cc1ccccc1O)Cc1ccccc1O reported_measurement=12.9

Each recorded value in this set is attributed to ChEMBL document CHEMBL1133005.
